tested on: RPMI-8226; assay: NCI tumour cell line growth inhibition, 48 h
The source made the active and inactive calls. Cut-off read from the data, not from the text of the source: active = GI50 up to about 1.1 µM and inactive = higher.
Response enum: T = active, F = inactive

Would you please look over these solved cases?
compound=CCCCCC(=O)c1ccc2[nH]c3c(C)cc([N+](=O)[O-])c(C)c3c2c1 assigned_category=F
compound=CC(C)(CNC(=O)/C(Cl)=C(/Cl)C(=O)O)CNC(=O)/C(Cl)=C(/Cl)C(=O)O assigned_category=F

[ask] Recorded call for CC(C)(C)OC(=O)CN1CCN(CC(=O)N2CCN(C(=O)OCc3ccccc3)CC2)CCN(CC(=O)OC(C)(C)C)CCN(CC(=O)N2CCN(C(=O)OCc3ccccc3)CC2)CC1 ?
[reply] T

[ask] // return assay outcome for CSC(Cc1ccc2c(c1)Sc1ccccc1O2)=[N+]1CCOCC1
[reply] F

[ask] Which result was noted for this compound in the test: O=c1cccccc1NCCCCCCNc1cccccc1=O
[reply] F

[ask] Lab log entry: Cn1ccc(C(=O)NCCOCCNC(=O)c2ccn(C)c(=O)c2O)c(O)c1=O — outcome as called in the assay?
[reply] F

[ask] Please let me know the test result on file for CCOC(=O)C1C(=O)CC(O)(c2ccccc2)C(C(=O)OCC)C1c1ccc(OC)cc1 (centres undefined) .
[reply] F

====

tested on: SF-295; assay: NCI tumour cell line growth inhibition, 48 h
Activity calls are given as the source filed them. No stated cut-off is given here; in the data, active = GI50 up to about 1.1 µM and inactive = higher. Where a SMILES comes first, the peptide text is derived from it. [ ]: non-standard residue; d: D form. Phe(4-Cl) = N[CH](Cc1ccc(Cl)cc1)C(=O)O
Task for the reader: assign each of the following compounds its reported GI50.

compound=CC(CC(=O)O)(CC(=O)O)C(=O)O reported_value="> 100 µM (inactive)"

Working through the 8 compounds below one at a time, give GI50 for each.
1. Cc1cn(CCCC2=NCCCN2)c(=O)[nH]c1=O
2. CN(C)CC1CCC(=C2CCCC2)C1=O (stereo not given)
3. O=S(=O)(c1ccccc1)N1CCN(S(=O)(=O)c2ccccc2)c2ccccc21
4. CC1S(=O)(=O)OCCOS1(=O)=O
5. COC(=O)[C@@H]1CN(C(=O)CCc2ccccc2)C(=O)N1C(=O)OCc1ccccc1
6. CC(C)OC(=O)c1cc(NC(=O)C(C)(C)C)c(F)cc1Cl
7. CSC(C1c2ccccc2N(C)c2[nH]c(=O)n(C)c(=O)c21)S(=O)(=O)c1ccc(C)cc1 (stereo not given)
8. CC(=O)N1CN2C(=O)CCC2c2cc(C)ccc21 (stereo not given)

[reply]
["> 100 µM (inactive)", "> 100 µM (inactive)", "81.8 µM (inactive)", "50.4 µM (inactive)", "> 100 µM (inactive)", "> 100 µM (inactive)", "> 100 µM (inactive)", "> 100 µM (inactive)"]

Provide the reported GI50 of each entry below, same order.
1. COc1ccc(-c2cc(O)c3cc(OC)c(OC)cc3n2)cc1OC
2. CS(=O)(=O)NNS(=O)(=O)c1ccc(Cl)cc1
3. CCOC(=O)C1C(=O)CC(O)(c2ccccc2)C(C(=O)OCC)C1c1ccc(OC)cc1 (stereo not given)

[reply]
1. > 100 µM (inactive)
2. > 100 µM (inactive)
3. 3.24 µM (inactive)

Dear colleague, could you please provide GI50 for the compounds listed below?
1. O=C(O)c1cc(O)nc(S)n1
2. COc1c(-c2nc3ccc(N4CCN(C)CC4)nc3[nH]2)cc(OC)c2c1nc(CO)n2C
3. CSc1nc2c(c(=O)n1C)N=C(c1ccccc1)[C@H](C(CC(=O)c1ccccc1)c1ccccc1)C(c1ccccc1)N2 (stereo not given in full)
4. CC(O)C(NC(=O)C(Cc1ccccc1)NC(=O)C(NC(=O)C(CCCCN)NC(=O)C(Cc1c[nH]c2ccccc12)NC(=O)C(Cc1ccc(O)cc1)NC(=O)C(Cc1ccc(Cl)cc1)NC(=O)C(N)Cc1ccccc1)C(C)O)C(N)=O (stereo not given) (H-F[Phe(4-Cl)]YWKTFT-NH2; configuration not given here)

[reply]
1. > 100 µM (inactive)
2. > 100 µM (inactive)
3. > 100 µM (inactive)
4. 8.53 µM (inactive)

====

system: SK-OV-3; experiment: NCI tumour cell line growth inhibition, 48 h
Activity calls are given as the source filed them. Rule as the data show it: active = GI50 up to about 1.1 µM and inactive = higher.
Respond with a class label; see 1 = active, 0 = inactive

Please review the following examples before continuing.
compound=N#Cc1c(-c2ccccc2)[nH]c2ccc(Cl)cc2c1=O experimental_target=SK-OV-3 assigned_category=0
compound=O=C(/C=N/c1ccccc1C(=O)[O-])c1cccs1.O=C(/C=N/c1ccccc1C(=O)[O-])c1cccs1.[Zn+2] experimental_target=SK-OV-3 assigned_category=0
compound="CC1CCCCCC(=O)c2c(O)cc(O)cc2CC(=O)O1 (centres undefined) [CURVULARIN]" experimental_target=SK-OV-3 assigned_category=0
compound=NC(=O)NC(=O)c1ccc(NC(=O)CBr)cc1 experimental_target=SK-OV-3 assigned_category=0
compound=CCOc1ccc2c(c1)/C(=C(\C(Cl)=C(Cl)Cl)[N+](=O)[O-])N2 experimental_target=SK-OV-3 assigned_category=0
compound="CC(=O)N1CN2C(=O)CCC2c2cc(C)ccc21 (centres undefined)" experimental_target=SK-OV-3 assigned_category=0
compound="CCN(CC)CCC(=O)O[C@H]1CC[C@H](CC(C)[C@H]2CC(=O)C(C)C=C(C)[C@H](OC(=O)CCN(CC)CC)C(OC)C(=O)[C@@H](C)CC(C)/C=C/C=C/C=C(C)C(OC)CC3CC[C@H](C)[C@](O)(O3)C(=O)C(=O)N3CCCCC3C(=O)O2)CC1OC (some centres undefined)" experimental_target=SK-OV-3 assigned_category=1
compound=C=Cc1nc(C#N)c(N)o1 experimental_target=SK-OV-3 assigned_category=0

Now for a further compound.
[ask] Call for entry O=C1/C(=C\c2ccc([N+](=O)[O-])cc2)Sc2scc(-c3ccc(O)c(O)c3)[n+]21 :
[reply] 0

====

system: LXFL 529; assay: NCI tumour cell line growth inhibition, 48 h
Active and inactive are the calls of the source. Rule as the data show it: active = GI50 up to about 1.1 µM and inactive = higher.
Your response should consist of one outcome taken from active, inactive

compound=COC(=O)[C@H](Cc1ccccc1)NC(=O)/C(=C/C(C)C)NC(=O)[C@H](CCSC)NC=O experimental_target="LXFL 529" assigned_category=inactive

[ask] Could you kindly confirm the outcome this assay logged for COC(=O)/C=C1\CCC2[C@@H](C(=O)CC3[C@]2(C)CCC[C@@]3(C)C(=O)OC)C1C (stereo partly specified) ?
[reply] inactive

[ask] Answer briefly: the call reported for NC(=S)/N=C(/c1nc2ccc(Cl)cc2nc1O)C(O)c1ccccc1Cl (stereo unspecified) in this assay.
[reply] inactive

[ask] Please indicate how the test categorized O=c1c2ccccc2nc(-c2ccccc2)n1NC(=S)Nc1cccc(Cl)c1 .
[reply] inactive

[ask] Kindly provide the recorded test outcome for the following compound: CC1=NN(C(=O)c2ccc(Cl)cc2)C(=O)/C1=C/c1ccc(O)cc1
[reply] inactive

[ask] Returns: the outcome recorded for O=C1[C@@H]2C(c3ccccc3[N+](=O)[O-])=[N+](c3ccccc3)O[C@@H]2C(=O)N1c1ccc(Cc2ccc(N3C(=O)[C@H]4C(c5ccccc5[N+](=O)[O-])=[N+](c5ccccc5)O[C@H]4C3=O)cc2)cc1 in this assay.
[reply] inactive

[ask] Dear all, I need the recorded test outcome for CC(=O)OCCOCNC(=S)N/N=C(\C)c1cnc2ccccc2n1 , thank you.
[reply] inactive

====

test system: SNB-78; experiment: NCI tumour cell line growth inhibition, 48 h
Calls of active or inactive are those of the source. Cut-off read from the data, not from the text of the source: active = GI50 up to about 1.1 µM and inactive = higher.
OUTCOME MEASURE: GI50

Example compounds with recorded GI50:
compound="CN(C)CC1CCC(=C2CCCC2)C1=O (stereo not drawn)" outcome_measure=GI50 reported_value="12.6 µM (inactive)"
compound=COc1ccc(C=O)c(NC(=O)C(C)C)c1 outcome_measure=GI50 reported_value="66.1 µM (inactive)"
compound="COc1ccc2c(c1)NC1(O)c3ccccc3C(=O)C21O (stereo not drawn)" outcome_measure=GI50 reported_value="> 100 µM (inactive)"
compound="N=C(N)N/N=C(/c1nc2ccc([N+](=O)[O-])cc2[nH]c1=O)C(O)c1ccc([N+](=O)[O-])cc1 (stereo not drawn)" outcome_measure=GI50 reported_value="> 100 µM (inactive)"
compound="CCCCCCCC1(c2ccc(N)cc2)CCC(=O)NC1=O (stereo not drawn)" outcome_measure=GI50 reported_value="31.6 µM (inactive)"

Look up GI50 for the entries below, preserving their order.
1. CC12CCC(C(=O)N3CC=CCC3)(OC1=O)C2(C)C (stereo not drawn)
2. O=c1cccccc1NCCCCCCNc1cccccc1=O
3. CCOC(=O)/C(=C\c1cccs1)P(=O)(OCC)OCC
4. COC(=N)c1csc(C2OC(CO)C(O)C2O)n1 (stereo not drawn)
5. CC12CCc3ccccc3C1=NNC(=O)C2 (stereo not drawn)

[reply]
["> 100 µM (inactive)", "> 100 µM (inactive)", "49.3 µM (inactive)", "> 100 µM (inactive)", "> 100 µM (inactive)"]

Value sought for every listed compound: GI50.
1. CCCCCCCSCC1OC(n2cnc3c(N)ncnc32)C(O)C1O (stereo not drawn)
2. CC1=C(c2cc(C(=O)Nc3cccc(C(F)(F)F)c3)nc(NC#N)n2)Sc2ccccc2N1
3. O=C(O)C(Cl)(Cl)Cl
4. CC(=O)OC1[C@H]2c3cc4c(cc3CN3CCC(C[C@@H]1OC(C)=O)C23)OCO4 (stereo partly drawn)
5. CCOc1ccc(C2=C(Cl)c3cc(OC)c(OC)cc3C2Cl)cc1 (stereo not drawn)
6. C/N=c1\ss/c(=N\C(=S)N(C)C)n1-c1ccccc1
7. O=C1C2Nc3ccccc3SC2C(=O)N1c1ccccc1C(F)(F)F (stereo not drawn)
8. CCOC(=O)C1=C(NC)OCC1=O

[reply]
> 100 µM (inactive)
> 100 µM (inactive)
> 100 µM (inactive)
> 75 µM (inactive)
27.4 µM (inactive)
46 µM (inactive)
15.2 µM (inactive)
> 100 µM (inactive)

Hi, could you look up GI50 for each item in my list?
1. C/C(=N\NC(=S)Nc1ccc([N+](=O)[O-])cc1S(=O)(=O)O)c1ccccn1
2. COC(=O)/C=C1\CCC2[C@@H](C(=O)CC3[C@]2(C)CCC[C@@]3(C)C(=O)OC)C1C (stereo partly drawn)
3. CN1C/C(=C\c2ccc(C(=O)O)cc2)C(=O)/C(=C/c2ccc(C(=O)O)cc2)C1

[reply]
["> 100 µM (inactive)", "29.2 µM (inactive)", "> 100 µM (inactive)"]

# map each compound to its GI50
1. O=C[C@@H](CO)O[C@H](C=O)c1c[nH]c(=O)[nH]c1=O
2. CCOC(=O)c1c(-c2ccccc2)oc(-c2ccccc2)c1C(=O)OCC

[reply]
133 µM (inactive)
> 100 µM (inactive)
